# testProtocol: in vitro
# measurementConditions: chlorocebus sabaeus, Vero E6 (Vero C1008) cells, pCC50
measure: CC50 at 48 h

Here's what some known entries look like.
| compound | result |
| --- | --- |
| CC[C@H](C(=O)[C@H](C)[C@@H](O)[C@H](C)CCc1ccc(C)c(O)c1C(=O)O)[C@@H]1O[C@@](CC)([C@H]2CC[C@](O)(CC)[C@@H](C)O2)C[C@@H]1C | ~5.37 µM |
| CCN(CC)CCCC(C)Nc1ccnc2cc(Cl)ccc12 (centres undefined) [CHLOROQUINE] | ~38.9 µM |
| COc1cc(C(=O)OCCCN2CCCN(CCCOC(=O)c3cc(OC)c(OC)c(OC)c3)CC2)cc(OC)c1OC [DILAZEP] | ~28.2 µM |

As a next step, examine the compound that follows.
Give the measured CC50 at 48 h of Clc1cnn(CCCCN2CCN(c3ncccn3)CC2)c1 [LESOPITRON] .
> 100 µM

These entries and their values trace back to ChEMBL document CHEMBL4651402.
